# System: HepG2
# assay-info: GSK_TCMDC: Percent inhibition of human HepG2 cell line. Test compounds present at 10uM.
# Type: functional
recorded-metric: Inhibition (%)
Answer with a number only, understood to be in %.

Cc1ccccc1C1CCN(C2CCC(NC(=O)/C=C/c3c(F)ccc(F)c3F)CC2)CC1 (stereo unspecified) : 37

The measured Inhibition associated with O=C(Nc1ccc(-c2nc3ccccc3[nH]2)cc1)c1cccc(S(=O)(=O)N2CCOCC2)c1 reads 6

The measured Inhibition associated with Fc1c(CNCC2CCN(CC3CCCCC3)CC2)cccc1C(F)(F)F.O=C(O)C(F)(F)F reads 35

The measured Inhibition associated with Cc1cc2ncn(-c3nccc(NCc4ccc(F)c(C)c4)n3)c2cc1C.O=C(O)C(F)(F)F reads 10

* * *

# Tested on: Plasmodium falciparum
# assay-info: GSK_TCMDC: Inhibition of Plasmodium falciparum 3D7 in whole red blood cells, using parasite LDH activity as an index of growth. Test compounds present at 2uM
# Assay type: functional
Each entry below carries its reported Inhibition.
Answer with a number only, understood to be in %.

Sample answers from the record:
CCNc1cc(C)nc(Nc2ccc(C)cc2)n1 : 100
O=C(c1cc(C(=O)Nc2ccccc2)c(=O)n(-c2ccccc2)c1)c1cc(Cl)ccc1O : 100
COC(=O)c1cc(NC(=O)Nc2ccc(Cn3ncc(N4CCCNCC4)c(Cl)c3=O)cc2)cc(C(=O)OC)c1.O=C(O)C(F)(F)F : 96

Continue with the next compound.
The measured Inhibition associated with CCn1c(-c2nonc2N)nc2c(-c3cccc(NC(=O)Nc4ccccc4OC)c3)ncc(OCCCN)c21.O=C(O)C(F)(F)F reads 92

* * *

Each entry below carries its reported Inhibition.
# System: Plasmodium falciparum
# assay-info: GSK_TCMDC: Inhibition of Plasmodium falciparum Dd2 in whole red blood cells, using parasite LDH activity as an index of growth. Test compounds present at 2uM
# Type: functional
Answer with a number only, understood to be in %.

Sample answers from the record:
COC(=O)c1ccc(CCCNCC(O)c2cccc(C(F)(F)F)c2)cc1 (stereo not given) : 88
O=C(N[C@H]1CCN(Cc2ccc(OCCN3CCNCC3)c3ccccc23)C1)c1ccc(Cl)c(Cl)c1.O=C(O)C(F)(F)F : 99
C#CCN(Cc1cc2c(=O)[nH]c(N)nc2cc1C)c1ccc(C(=O)N[C@@H](CCC(=O)O)C(=O)O)cc1 : 74
Cl.Fc1cccc(COc2ccc(Nc3ncnc4ccc(-c5nnc(C(F)(F)F)o5)cc34)cc2Cl)c1 : 77

Continue with the next molecule.
The measured Inhibition associated with Cn1nccc1C(=O)NCCNCc1cccc(-c2ccc(-c3nc4ccccc4[nH]3)s2)c1.O=C(O)C(F)(F)F reads 94

* * *

# System: Plasmodium falciparum
# assay-info: GSK_TCMDC: Inhibition of Plasmodium falciparum Dd2 in whole red blood cells, using parasite LDH activity as an index of growth. Test compounds present at 2uM
# Assay type: functional
recorded-metric: Inhibition
Answer shape: numeric part, then the unit.

Sample answers from the record:
O=C(Nc1cccc(CN2CCCN(CC3CCCCC3)CC2)c1)c1cc2ccccc2s1.O=C(O)C(F)(F)F : 15%
Cc1nc(C)c(-c2ccc(S(=O)(=O)c3ccc(Cl)cc3)cc2)c(O)c1Cl : 96%
N#Cc1cnc2cc(-c3cnc(CNCCN4CCOCC4)s3)ccc2c1Nc1ccc(Oc2ccccc2)cc1 : 83%

Continue with the next molecule.
The measured Inhibition associated with CC(C)CCNC(=O)C1Cc2c([nH]c3cc(Br)ccc23)C2(CCN(CCc3ccccc3)CC2)N1 (centres undefined) reads 48%
